- test_target: T1, human glucose-dependent insulinotropic polypeptide receptor (human, UniProt P48546 22-466)
- T1 sequence (looked up): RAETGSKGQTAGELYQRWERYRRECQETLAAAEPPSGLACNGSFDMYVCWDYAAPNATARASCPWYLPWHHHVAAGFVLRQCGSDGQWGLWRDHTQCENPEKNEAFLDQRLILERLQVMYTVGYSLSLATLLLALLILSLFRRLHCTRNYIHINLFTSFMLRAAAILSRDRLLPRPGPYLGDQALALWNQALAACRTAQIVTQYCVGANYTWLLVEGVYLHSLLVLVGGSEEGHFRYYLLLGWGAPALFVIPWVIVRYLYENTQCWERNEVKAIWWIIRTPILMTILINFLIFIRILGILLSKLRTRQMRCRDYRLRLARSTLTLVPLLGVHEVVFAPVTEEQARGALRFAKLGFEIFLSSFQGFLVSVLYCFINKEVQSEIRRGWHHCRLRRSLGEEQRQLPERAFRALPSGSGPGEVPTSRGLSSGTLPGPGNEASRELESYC
- procedure_summary: cell-based or functional assay
Where no end group is shown, it is not given here. [ ]: non-standard residue; d: D form. Aib = CC(C)(N)C(=O)O
measured_parameter: hGIPR CRE Luc EC50 (pM)
Answers are plain numbers, in pM.

List reported hGIPR CRE Luc EC50 (pM) for each of these binders:
1. Y[Aib]QGTFTSDYSIYLDKQAA[Aib]KFVNWLLAGGPSSGAPPPS-NH2 (not fully specified (residue 21); printed as Y-Aib-QGTFTSDYSIYLDKQAA-Aib-K[2-[2-[2-[[2-[2-[2-[[(4S)-4-carboxy-4-(17-carboxyheptadecanoylamino)butanoyl]amino]ethoxy]ethoxy]acetyl]amino]ethoxy]ethoxy]acetyl]-FVNWLLAGGPSSGAPPPS-NH2) [Compound No. 3]
2. H[Aib]HGTFTSDYSIYLEKQYA[Aib]EFVQWLLEGGPSSGAPPPS-NH2 (not fully specified (residue 16); printed as H-Aib-HGTFTSDYSIYLE-K[(2S)-2-amino-6-[[(2S)-2-amino-6-[[(4S)-4-carboxy-4-(19-carboxynonadecanoylamino)butanoyl]amino]hexanoyl]amino]hexanoyl]-QYA-Aib-EFVQWLLEGGPSSGAPPPS-NH2) [Compound No. 24]
3. H[Aib]HGTFTSDYSYYLEKQAA[Aib]EFVQWLLEGGPSSGAPPPS-NH2 (not fully specified (residue 16); printed as H-Aib-HGTFTSDYSYYLE-K[(2S)-2-amino-6-[[(2S)-2-amino-6-[[(4S)-4-carboxy-4-[[4-[(19-carboxynonadecanoylamino)methyl]cyclohexanecarbonyl]amino]butanoyl]amino]hexanoyl]amino]hexanoyl]-QAA-Aib-EFVQWLLEGGPSSGAPPPS-NH2) [Compound No. 25]
4. H[Aib]HGTFTSDYSILLEKQAAEEFVQWLLEGGPSSGAPPPS-NH2 (not fully specified (residue 16); printed as H-Aib-HGTFTSDYSILLE-K[(2S)-2-amino-6-[[(2S)-2-amino-6-[[(4S)-4-carboxy-4-(19-carboxynonadecanoylamino)butanoyl]amino]hexanoyl]amino]hexanoyl]-QAAEEFVQWLLEGGPSSGAPPPS-NH2) [Compound No. 49]
5. H[Aib]HGTFTSDYSIYLDKQAA[Aib]EFVQWLLEGGPSSGAPPPS-NH2 (not fully specified (residue 16); printed as H-Aib-HGTFTSDYSIYLD-K[(2S)-2-amino-6-[[(2S)-2-amino-6-[[(4S)-4-carboxy-4-(19-carboxynonadecanoylamino)butanoyl]amino]hexanoyl]amino]hexanoyl]-QAA-Aib-EFVQWLLEGGPSSGAPPPS-NH2) [Compound No. 28]

A:
27.5
7.7
6.9
2.1
7.7
